// reported MIC for each item listed
Test system: Escherichia coli
testName: Antibacterial activity against Escherichia coli after 18 hrs by serial dilution method
Type: functional

| molecule | measurementQualifier | MIC, µg/mL |
| --- | --- | --- |
| N[C@@H](C(=O)N[C@@H]1C(=O)N2C(C(=O)O)=C(CC3CCCCO3)CS[C@H]12)c1ccccc1 (stereo partly drawn) | > | 50 |
| N[C@@H](C(=O)N[C@@H]1C(=O)N2C(C(=O)O)=C(Cc3cccnc3)CS[C@H]12)c1ccccc1 | = | 2.5 |
| CC(=O)OCC1=C(C(=O)O)N2C(=O)[C@@H](NC(=O)[C@H](N)c3ccccc3)[C@H]2SC1 | = | 5 |
| COC(=O)CC1=C(C(=O)O)N2C(=O)[C@@H](NC(=O)[C@H](N)c3ccccc3)[C@H]2SC1 | = | 31 |
| N[C@@H](C(=O)N[C@@H]1C(=O)N2C(C(=O)O)=C(Cc3ccccc3)CS[C@H]12)c1ccccc1 | = | 25 |
| N[C@@H](C(=O)N[C@@H]1C(=O)N2C(C(=O)O)=C(Cc3cncc(C(=O)O)c3)CS[C@H]12)c1ccccc1 | = | 12.5 |
| CN(C)S(=O)(=O)c1ccc(CC2=C(C(=O)O)N3C(=O)[C@@H](NC(=O)[C@H](N)c4ccccc4)[C@H]3SC2)cc1 | = | 25 |
| N[C@@H](C(=O)N[C@@H]1C(=O)N2C(C(=O)O)=C(Cc3ccccc3C(F)(F)F)CS[C@H]12)c1ccccc1 | > | 100 |
| CC(=O)OCCC1=C(C(=O)O)N2C(=O)[C@@H](NC(=O)[C@H](N)c3ccccc3)[C@H]2SC1 | > | 50 |
| Cn1cccc1CC1=C(C(=O)O)N2C(=O)[C@@H](NC(=O)[C@H](N)c3ccccc3)[C@H]2SC1 | = | 500 |
| CC1=C(C(=O)O)N2C(=O)[C@@H](NC(=O)[C@H](N)c3ccccc3)[C@H]2SC1 [CEPHALEXIN ANHYDROUS] | = | 12.5 |
| N[C@@H](C(=O)N[C@@H]1C(=O)N2C(C(=O)O)=C(Cc3ccccn3)CS[C@H]12)c1ccccc1 | = | 50 |
| Cc1ccncc1CC1=C(C(=O)O)N2C(=O)[C@@H](NC(=O)[C@H](N)c3ccccc3)[C@H]2SC1 | = | 12.5 |

* * *

testName: Drug level in mouse blood at 50 mg/kg, po after 10 mins by microbiological assay
Assay type: ADME, organism-based
Parameters: dose 50 mg/kg, route oral
cond: read-out: Drug uptake
assayReadout: concentration at 10 min (ng/mL)

| chemSmiles | measurementQualifier | reading |
| --- | --- | --- |
| N[C@@H](C(=O)N[C@@H]1C(=O)N2C(C(=O)O)=C(Cc3ccccc3C(=O)O)CS[C@H]12)c1ccccc1 | = | 1100 |
| N[C@@H](C(=O)N[C@@H]1C(=O)N2C(C(=O)O)=C(Cc3ccc(C(=O)O)cc3)CS[C@H]12)c1ccccc1 | < | 1000 |
| N[C@@H](C(=O)N[C@@H]1C(=O)N2C(C(=O)O)=C(Cc3cccc(C(=O)O)c3)CS[C@H]12)c1ccccc1 | = | 870 |

* * *

testName: Drug level in mouse blood at 50 mg/kg, iv after 30 mins by microbiological assay
Format: ADME, organism-based
Design: dose 50 mg/kg, route intravenous
cond: read-out: Drug uptake
Consider the following molecules and their measured concentration at 0.5 h readings.
assayReadout: concentration at 0.5 h

| chemSmiles | reading |
| --- | --- |
| N[C@@H](C(=O)N[C@@H]1C(=O)N2C(C(=O)O)=C(Cc3ccccc3C(=O)O)CS[C@H]12)c1ccccc1 | 75400 ng/mL |
| CC(=O)OCC1=C(C(=O)O)N2C(=O)[C@@H](NC(=O)[C@H](N)c3ccccc3)[C@H]2SC1 | 11000 ng/mL |
| O=C(Cc1cccs1)N[C@@H]1C(=O)N2C(C(=O)[O-])=C(C[n+]3ccccc3)CS[C@H]12 | 14300 ng/mL |
| N[C@@H](C(=O)N[C@@H]1C(=O)N2C(C(=O)O)=C(Cc3ccc(C(=O)O)cc3)CS[C@H]12)c1ccccc1 | 39200 ng/mL |

* * *

testName: Drug level in mouse blood at 50 mg/kg, po after 20 mins by microbiological assay
Assay type: ADME, organism-based
Set-up: dose 50 mg/kg, route oral
cond: read-out: Drug uptake

| chemSmiles | measurementQualifier | concentration at 20 min, ng/mL |
| --- | --- | --- |
| CC(=O)OCC1=C(C(=O)O)N2C(=O)[C@@H](NC(=O)[C@H](N)c3ccccc3)[C@H]2SC1 | = | 2600 |
| N[C@@H](C(=O)N[C@@H]1C(=O)N2C(C(=O)O)=C(Cc3ccccc3C(=O)O)CS[C@H]12)c1ccccc1 | = | 1400 |
| N[C@@H](C(=O)N[C@@H]1C(=O)N2C(C(=O)O)=C(Cc3cncc(C(=O)O)c3)CS[C@H]12)c1ccccc1 | = | 850 |
| N[C@@H](C(=O)N[C@@H]1C(=O)N2C(C(=O)O)=C(Cc3cccc(C(=O)O)c3)CS[C@H]12)c1ccccc1 | = | 1050 |
| N[C@@H](C(=O)N[C@@H]1C(=O)N2C(C(=O)O)=C(Cc3cccnc3)CS[C@H]12)c1ccccc1 | = | 1440 |
| N[C@@H](C(=O)N[C@@H]1C(=O)N2C(C(=O)O)=C(Cc3ccc(C(=O)O)cc3)CS[C@H]12)c1ccccc1 | < | 1000 |
| N[C@@H](C(=O)N[C@@H]1C(=O)N2C(C(=O)O)=C(Cc3ccccc3)CS[C@H]12)c1ccccc1 | = | 180 |

* * *

testName: Drug level in mouse blood at 50 mg/kg, sc after 4 hrs by microbiological assay
Assay type: ADME, organism-based
Set-up: dose 50 mg/kg, route subcutaneous
cond: read-out: Drug uptake
Quick list: concentration at 4 h per entry.

| chemSmiles | unitsLabel | measurementQualifier | concentration at 4 h |
| --- | --- | --- | --- |
| CC(=O)OCC1=C(C(=O)O)N2C(=O)[C@@H](NC(=O)[C@H](N)c3ccccc3)[C@H]2SC1 | ng/mL | < | 100 |
| N[C@@H](C(=O)N[C@@H]1C(=O)N2C(C(=O)O)=C(Cc3cccc(C(=O)O)c3)CS[C@H]12)c1ccccc1 | ng/mL | = | 1600 |
| N[C@@H](C(=O)N[C@@H]1C(=O)N2C(C(=O)O)=C(Cc3ccc(C(=O)O)cc3)CS[C@H]12)c1ccccc1 | ng/mL | = | 9300 |

* * *

testName: Drug level in mouse blood at 50 mg/kg, iv after 1 hr by microbiological assay
Format: ADME, organism-based
Design: dose 50 mg/kg, route intravenous
cond: read-out: Drug uptake

| compound | concentration at 1 h |
| --- | --- |
| N[C@@H](C(=O)N[C@@H]1C(=O)N2C(C(=O)O)=C(Cc3ccc(C(=O)O)cc3)CS[C@H]12)c1ccccc1 | 25400 ng/mL |
| N[C@@H](C(=O)N[C@@H]1C(=O)N2C(C(=O)O)=C(Cc3ccccc3C(=O)O)CS[C@H]12)c1ccccc1 | 64400 ng/mL |
| CC(=O)OCC1=C(C(=O)O)N2C(=O)[C@@H](NC(=O)[C@H](N)c3ccccc3)[C@H]2SC1 [CEPHALOGLYCIN] | 1500 ng/mL |
| O=C(Cc1cccs1)N[C@@H]1C(=O)N2C(C(=O)[O-])=C(C[n+]3ccccc3)CS[C@H]12 [CEPHALORIDINE] | 2900 ng/mL |

* * *

testName: Drug level in mouse blood at 50 mg/kg, po after 2 hrs by microbiological assay
Type: ADME, organism-based
Parameters: dose 50 mg/kg, route oral
cond: read-out: Drug uptake

| compound | concentration at 2 h, ng/mL |
| --- | --- |
| N[C@@H](C(=O)N[C@@H]1C(=O)N2C(C(=O)O)=C(Cc3ccccc3C(=O)O)CS[C@H]12)c1ccccc1 | 2800 |
| N[C@@H](C(=O)N[C@@H]1C(=O)N2C(C(=O)O)=C(Cc3ccccc3)CS[C@H]12)c1ccccc1 | 340 |
| CC1=C(C(=O)O)N2C(=O)[C@@H](NC(=O)[C@H](N)c3ccccc3)[C@H]2SC1 [CEPHALEXIN ANHYDROUS] | 2500 |
| CC(=O)OCC1=C(C(=O)O)N2C(=O)[C@@H](NC(=O)[C@H](N)c3ccccc3)[C@H]2SC1 [CEPHALOGLYCIN] | 700 |
| N[C@@H](C(=O)N[C@@H]1C(=O)N2C(C(=O)O)=C(Cc3cccc(C(=O)O)c3)CS[C@H]12)c1ccccc1 | 1600 |
| N[C@@H](C(=O)N[C@@H]1C(=O)N2C(C(=O)O)=C(Cc3cncc(C(=O)O)c3)CS[C@H]12)c1ccccc1 | 600 |
| N[C@@H](C(=O)N[C@@H]1C(=O)N2C(C(=O)O)=C(Cc3cccnc3)CS[C@H]12)c1ccccc1 | 650 |
| N[C@@H](C(=O)N[C@@H]1C(=O)N2C(C(=O)O)=C(Cc3ccc(C(=O)O)cc3)CS[C@H]12)c1ccccc1 | 2300 |
